Reported one-nucleolus phenotype percent effect by item:
Tested on: MCF10A
test.name: one-nucleolus phenotype percent effect (relative to siNT 0% and siNOL11 100%); higher = more cells with one nucleolus (ribosome biogenesis inhibition)
test.settings: 20 nM; 72 h
# number only, unit % dropped from output

>  <sequence>
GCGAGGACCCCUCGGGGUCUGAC [hsa-miR-611]

>  <experimental.system>
MCF10A

>  <units>
%

>  <one-nucleolus phenotype percent effect>
-31.1

$$$$
>  <sequence>
UCAAUAGGAAAGAGGUGGGACCU [hsa-miR-6826-5p]

>  <experimental.system>
MCF10A

>  <units>
%

>  <one-nucleolus phenotype percent effect>
26.5

$$$$
>  <sequence>
AAAAUGGUGCCCUAGUGACUACA [hsa-miR-224-3p]

>  <experimental.system>
MCF10A

>  <units>
%

>  <one-nucleolus phenotype percent effect>
12.8

$$$$
>  <sequence>
AGGGAAGGGGACGAGGGUUGGG [hsa-miR-5196-5p]

>  <experimental.system>
MCF10A

>  <units>
%

>  <one-nucleolus phenotype percent effect>
5.32

$$$$
>  <sequence>
UGAGCCCUGUCCUCCCGCAG [hsa-miR-1233-3p]

>  <experimental.system>
MCF10A

>  <units>
%

>  <one-nucleolus phenotype percent effect>
-6.71

$$$$

Query: # lookup: one-nucleolus phenotype percent effect of UAUAUGGACUUUUCUGAUACAAUG [hsa-miR-8076]
Reply: -22.4
